Ref: patent US20170313764A1

target: E1E2 of HCV isolate AMS.4d.20875969 (genotype 4d) (Hepatitis C virus genotype 4d); experiment: cell-based or functional assay
Catalogue of IC90, HCVpp neutralization values

Binder	IC90, HCVpp neutralization
AT12-010 (antibody, V domains shown) VH: QLQLVQSGAEVKKPGSSVKVSCKASGGTFTSYAINWVRQVPGQGLEWMGEISPVFGTTHYAQKFQGRLKITADESADTAYMELSSLRSDDTAVYYCGRDRAPRLCSGGRCHSPPDHWGQGTLVTVSS VL: DIQMTQSPSSVSASVGDRVTITCRASQGFGNWLAWYQQKPGRAPKLLIFGASTLQNGVPSRFSGSASGTDFTLTITSLQPEDFATYYCLQTNTFPYTFGQGTKVEIKR	> 50 µg/mL
AT12-009 (antibody, V domains shown) VH: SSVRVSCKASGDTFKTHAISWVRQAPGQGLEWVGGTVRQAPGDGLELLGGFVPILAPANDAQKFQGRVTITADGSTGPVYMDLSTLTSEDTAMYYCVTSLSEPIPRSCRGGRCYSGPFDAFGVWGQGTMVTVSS VL: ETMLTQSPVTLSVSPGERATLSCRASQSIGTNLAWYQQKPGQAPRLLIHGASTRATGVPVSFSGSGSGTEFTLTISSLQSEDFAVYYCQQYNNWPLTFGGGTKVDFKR	47.4 µg/mL

Here is another binder to look at.
## Input State the recorded IC90, HCVpp neutralization for this entry: AT13-021 (antibody, V domains shown) VH: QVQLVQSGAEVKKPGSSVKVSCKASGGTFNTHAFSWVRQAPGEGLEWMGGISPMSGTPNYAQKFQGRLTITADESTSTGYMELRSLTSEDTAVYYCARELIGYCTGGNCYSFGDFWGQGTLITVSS VL: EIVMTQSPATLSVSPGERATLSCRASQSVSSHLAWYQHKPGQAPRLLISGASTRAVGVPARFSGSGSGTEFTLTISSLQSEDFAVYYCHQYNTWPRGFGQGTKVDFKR
## Output > 50 µg/mL
